B1: FBXO3 (parent)
chain: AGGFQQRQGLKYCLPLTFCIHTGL

variants of: B1; experiment: protein stability index of a GFP-peptide fusion (GPS, HEK-293T) (PSI 1-6); higher = more stable; settings: c terminus: a fixed tail appended;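 further: lentivirally expressed fusions sorted by FACS into six bins by GFP to DsRed ratio, PSI derived from sequencing read proportions per bin multiplied by bin number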
readout: protein stability index
Just the number, please, no unit after it.

// lookup protein stability index for `I20C`
3.77

// lookup protein stability index for `I20D`
2.93

// lookup protein stability index for `T22Y`
3.75

// lookup protein stability index for `C19P`
1.87

// lookup protein stability index for `I20Q`
2.62

// lookup protein stability index for `K11Y`
2.43

// lookup protein stability index for `G9S`
3.54

// lookup protein stability index for `T17L`
2.11

// lookup protein stability index for `L10T`
2.53

// lookup protein stability index for `Q8R`
2.99

// lookup protein stability index for `Y12P`
1.68

// lookup protein stability index for `T22Q`
2.23

// lookup protein stability index for `F18L`
3.1

// lookup protein stability index for `P15S`
2.81

// lookup protein stability index for `C19M`
2.71

// lookup protein stability index for `Y12A`
3.25

// lookup protein stability index for `C13I`
2.94

// lookup protein stability index for `G23L`
2.67

// lookup protein stability index for `L24F`
2.33

// lookup protein stability index for `L10A`
2.95

// lookup protein stability index for `R7D`
2.64

// lookup protein stability index for `L24A`
2.48
